test system: Mycobacterium tuberculosis; assay: Antibacterial activity against Mycobacterium tuberculosis H37Rv by microdilution resazurin assay; type: functional
Below, each entry is listed with its recorded MIC.
Dear colleague, please send the value followed by its unit.

Consider the worked cases shown below.
[ask] Please report MIC for the following compound: O=C(O)c1cn(C2CC2)c2cc(N3CCNCC3)c(F)cc2c1=O [CIPROFLOXACIN]
[reply] 0.5 µg/mL

[ask] Please report MIC for the following compound: CC(C)C/C=C/[C@@H](C)[C@H]1CC[C@@H]2[C@]1(C)CC=C1[C@]23C=C[C@]2(C[C@@H](O)CC[C@]12C)OO3
[reply] 16 µg/mL

[ask] Please report MIC for the following compound: CC[C@@H](/C=C/[C@@H](C)[C@H]1CC[C@@H]2[C@]1(C)CC[C@H]1[C@]23C=C[C@]2(C[C@@H](O)CC[C@]12C)OO3)C(C)C
[reply] 64 µg/mL

[ask] Please report MIC for the following compound: CC(C)[C@@H](C)/C=C/[C@@H](C)[C@H]1CC[C@@H]2[C@]1(C)CC[C@H]1[C@]23C=C[C@]2(C[C@@H](O)CC[C@]12C)OO3 [ERGOSTEROL PEROXIDE]
[reply] 64 µg/mL

[ask] Please report MIC for the following compound: CC(C)[C@@H](C)/C=C/[C@@H](C)[C@H]1CC[C@@H]2[C@]1(C)CC=C1[C@]23C=C[C@]2(C[C@@H](O)CC[C@]12C)OO3
[reply] 16 µg/mL

More entries:
[ask] Please report MIC for the following compound: Cn1c([N+](=O)[O-])cnc1C#Cc1ccnc(N)n1
[reply] 16 µg/mL
